TGI values for the compounds below.
Test system: HOP-62 NSCLC
test_protocol: NCI tumour cell line growth inhibition, 48 h

| compound | target_under_test | TGI |
| --- | --- | --- |
| CN(C)c1ccc(/C=C2\C[C@H]3[C@@H]4CCc5cc(O)ccc5[C@H]4CC[C@]3(C)C2=O)cc1 | HOP-62 NSCLC | > 100 µM |
| Cc1nn2c(/C=C3\C(=O)Nc4ccccc43)c(C)nc2s1 | HOP-62 NSCLC | > 100 µM |
| C=C(C(=O)OC)[C@H]1CC/C(C)=C/CC/C(C)=C/CC[C@@]2(C)O[C@@H]2C1 | HOP-62 NSCLC | 42.5 µM |
| CC1(O)C(=O)OC2CC([C@]3(O)CCC4[C@@H]5C[C@H]6O[C@]67[C@@H](O)C=CC(=O)[C@]7(C)C5CC[C@@]43C)C1(C)C2 (stereo not given in full) | HOP-62 NSCLC | > 100 µM |

IN: Consider the compound shown here: C[C@@H]1OCC(O)C([C@H]2OC(c3ccccc3)=N[C@H]2CO)O1 (stereo not given in full) What is its recorded TGI?
OUT: > 100 µM

IN: Thanks! And "COc1ccc(NC(=S)NNC(=O)c2cc(-c3ccccc3)nc3ccccc23)cc1" ?
OUT: 33.3 µM

IN: Thanks! And "O=c1/c(=C/c2ccc(-c3ccc(Cl)cc3Cl)o2)sc2n1[C@@H](c1ccc3c(c1)OCO3)C=C(c1cc(F)c(Cl)cc1Cl)N=2" ?
OUT: 28.9 µM

IN: Thanks! And "c1ccc(COc2cccc3cccnc23)cc1" ?
OUT: > 100 µM

IN: Thanks! And COC(=O)C1=C(C)NC2(C)OC(C)(O)C(C(C)=O)C12C(C)=O (stereo not given) ?
OUT: > 100 µM

IN: Thanks! And COc1ccccc1N1C(=O)/C(=C\c2cccc(Oc3ccccc3)c2)S(=O)(=O)C1c1ccccc1 (stereo not given) ?
OUT: > 100 µM

IN: Thanks! And "N#Cc1ccc2c(c1)C(=O)c1c-2n(CCCN=[N+]=[N-])c(=O)c2cc([N+](=O)[O-])ccc12" ?
OUT: > 50 µM

IN: Thanks! And "O=c1[nH]cnc2nc(-c3ccc(N(CCCl)CCCl)cc3)[nH]c12" ?
OUT: 63.8 µM

IN: Thanks! And "O=S(=O)(O)c1ccc(Nc2ccnc3cc(Cl)ccc23)cc1" ?
OUT: > 100 µM

IN: Thanks! And COc1cccc2ccc3c(c12)C(=O)OC31CCc2c(C)cccc21 (stereo not given) ?
OUT: > 46.4 µM

IN: Thanks! And "C=Cc1cnc([N+](=O)[O-])n1C" ?
OUT: > 100 µM

IN: Thanks! And "COc1cc(CNC(=O)CCSc2nc3ccccc3c(=O)n2Cc2cc(OC)c(OC)c(OC)c2)cc(OC)c1OC" ?
OUT: 28.7 µM

IN: Thanks! And "CCOC(=O)c1cc(-c2ccn(C(C)=O)c2)c(-c2cc(C)co2)[nH]1" ?
OUT: > 100 µM

IN: Thanks! And CNC(C)Cc1ccc(O)cc1 (stereo not given) ?
OUT: > 100 µM

IN: Thanks! And CSC1NNC2(C(=O)N1)c1ccccc1-c1ccccc12 (stereo not given) ?
OUT: > 10 µM

IN: Thanks! And "CC(=O)Nc1ccc(/C=C(\NC(=O)c2ccccc2)C(=O)NNS(=O)(=O)c2ccc(C)cc2)cc1" ?
OUT: > 100 µM

Cited source: PubChem BioAssay (NCI)
